details: in methyl acetate, 308.05 K
PROPERTY_MEASURED: solubility (mole fraction)
The answer should be a number; do not append a unit.

[Q] What does the data say about its solubility (mole fraction)? Entry: CCCCCCCC(=O)NCC(=O)O
[A] 0.0245

----------
details: in methanol, 273.15 K
PROPERTY_MEASURED: solubility (mole fraction)
// no unit string in output, number only

[Q] Bench note: what solubility (mole fraction) did CCCCCCCC(=O)NCC(=O)O show?
[A] 0.0347

----------
conditions: in n-butanol, 323.15 K
PROPERTY_MEASURED: solubility (mole fraction)
Respond with the number and no other words.

[Q] // lookup solubility (mole fraction) for CCCCCCCC(=O)NCC(=O)O
[A] 0.347

----------
details: in ethyl formate, 288.35 K
PROPERTY_MEASURED: solubility (mole fraction)
Could you respond with only the numeric value?

[Q] Consider the compound shown here: CCCCCCCC(=O)NCC(=O)O What is its recorded solubility (mole fraction)?
[A] 0.00555

----------
conditions: in n-pentanol, 303.15 K
PROPERTY_MEASURED: solubility (mole fraction)
// return a plain number; no unit text

[Q] Tell me the measured solubility (mole fraction) of CCCCCCCC(=O)NCC(=O)O , please.
[A] 0.123

----------
conditions: in isobutanol, 298.15 K
PROPERTY_MEASURED: solubility (mole fraction)
Field format: numeric only.

[Q] Record request: solubility (mole fraction) value, item CCCCCCCC(=O)NCC(=O)O
[A] 0.0622

----------
details: in isobutanol, 317.65 K
PROPERTY_MEASURED: solubility (mole fraction)
The response must contain the number and no unit.

[Q] May I ask what solubility (mole fraction) has been recorded for CCCCCCCC(=O)NCC(=O)O ?
[A] 0.131

----------
details: in isobutanol, 293.05 K
PROPERTY_MEASURED: solubility (mole fraction)
Just the number, please, no unit attached.

[Q] Data request, read-out solubility (mole fraction), for CCCCCCCC(=O)NCC(=O)O
[A] 0.0503

----------
settings: in methyl acetate, 283.15 K
PROPERTY_MEASURED: solubility (mole fraction)
When you answer, write just the number.

[Q] For the compound shown here, CCCCCCCC(=O)NCC(=O)O , give the reported solubility (mole fraction).
[A] 0.00448

----------
settings: in n-propanol, 288.35 K
PROPERTY_MEASURED: solubility (mole fraction)
Please reply with the number alone, leaving off any unit.

[Q] # query: solubility (mole fraction) of entry CCCCCCCC(=O)NCC(=O)O
[A] 0.0522

----------
settings: in n-butanol, 273.15 K
PROPERTY_MEASURED: solubility (mole fraction)
The answer should be a number; do not append a unit.

[Q] What does the record list as solubility (mole fraction) for CCCCCCCC(=O)NCC(=O)O ?
[A] 0.0228

----------
conditions: in ethyl formate, 283.15 K
PROPERTY_MEASURED: solubility (mole fraction)
Answer field: number only, no words.

[Q] What value of measured solubility (mole fraction) is listed for CCCCCCCC(=O)NCC(=O)O ?
[A] 0.00348

----------
conditions: in ethyl acetate, 313.25 K
PROPERTY_MEASURED: solubility (mole fraction)
Give the value as a plain number.

[Q] Returns the measured solubility (mole fraction) for the input compound. Input: CCCCCCCC(=O)NCC(=O)O
[A] 0.029
